- SYSTEM TESTED: canine FcRn (FcRn large subunit with canine beta-2-microglobulin) (canine)
- TEST: SPR pH 5.5, SASA-Fc captured on BSA, FcRn 100-800 nM

>  <BINDER>
canine IgGB Fc (CH2-CH3) YTE variant (L252Y/A254T/T256E) with N-terminal SASA tag (Fc fusion, part only; not given: SASA tag, not shown: another chain or arm of the molecule; small tags and cut ends) Fc: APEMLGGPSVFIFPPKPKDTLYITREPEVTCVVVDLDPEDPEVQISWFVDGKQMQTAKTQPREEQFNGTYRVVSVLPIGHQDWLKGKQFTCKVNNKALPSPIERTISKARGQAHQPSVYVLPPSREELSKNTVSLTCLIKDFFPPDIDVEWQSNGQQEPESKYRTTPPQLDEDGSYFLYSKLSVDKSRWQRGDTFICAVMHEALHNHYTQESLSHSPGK

>  <kon (M⁻¹ s⁻¹)>
250000

$$$$
>  <BINDER>
canine IgGB Fc (CH2-CH3) A426F with N-terminal SASA tag (Fc fusion, part only; not given: SASA tag, not shown: another chain or arm of the molecule; small tags and cut ends) Fc: APEMLGGPSVFIFPPKPKDTLLIARTPEVTCVVVDLDPEDPEVQISWFVDGKQMQTAKTQPREEQFNGTYRVVSVLPIGHQDWLKGKQFTCKVNNKALPSPIERTISKARGQAHQPSVYVLPPSREELSKNTVSLTCLIKDFFPPDIDVEWQSNGQQEPESKYRTTPPQLDEDGSYFLYSKLSVDKSRWQRGDTFICFVMHEALHNHYTQESLSHSPGK

>  <kon (M⁻¹ s⁻¹)>
253000

$$$$

Data origin: patent US20240327497A1
